# Tested on: BALB/C mice
# PROTOCOL DETAILS: Maximum tolerated dose (MTD) / acute toxicity by single intravenous injection
# CONDITIONS: single intravenous injection, 175 mg/kg, 10 BALB/C mice per group
TEST READOUT: Number of dead animal
Lab note: record the figure alone, no unit after it.

// recorded Number of dead animal for COCCOCC(=O)N[C@H](C)C(=O)N[C@H](C)C(=O)N[C@H](CC(N)=O)C(=O)Nc1ccc(COC(=O)OC(C(=O)OC2C[C@@]3(O)[C@@H](OC(=O)c4ccccc4)[C@H]4[C@](C)(C(=O)[C@H](O)C(=C2C)C3(C)C)[C@@H](O)CC2OC[C@]24OC(C)=O)[C@@H](NC(=O)OC(C)(C)C)c2ccccc2)cc1 (stereo partly shown) [Compound D1] : 0
